target: HLA-DP401 (DP*0401) (Homo sapiens, UniProt P04440+P20036); test: biochemical; settings: competition with biotinylated tracer; 3 independent experiments; read-out: Binding activity DP401 (IC50)
No end group written: not given here.
Recorded endpoint: IC50

- DPIEEHKKHSSGCAF [72-86, D P I E E H K K H S S G C A F]: > 100 µM
- EGWEPDDDPIEEHKK [65-79, E G W E P D D D P I E E H K K]: > 100 µM
- KEFEETAKKVRRAIE [122-136, K E F E E T A K K V R R A I E]: > 100 µM

----------
# No. of molecules fixed values compiled below
tested on: 12 predominant HLA II molecules; test: Binding to the 12 predominant HLA II molecules, summary; parameters: species or system human; conditions: number of the 12 predominant HLA II molecules bound (IC50 < 1000 nM)
No end group written: not given here.
Recorded endpoint: No. of molecules fixed

• AKKVRRAIEQLAAMD [peptide 128-142, A K K V R R A I E Q L A A M D] = 4
• KEFEETAKKVRRAIE [122-136, K E F E E T A K K V R R A I E] = 3
• DPIEEHKKHSSGCAF [72-86, D P I E E H K K H S S G C A F] = 0
• QPFLKDHRISTFKNW [11-25, Q P F L K D H R I S T F K N W] = 2
• EGWEPDDDPIEEHKK [65-79, E G W E P D D D P I E E H K K] = 0
• GEFLKLDRERAKNKI [99-113, G E F L K L D R E R A K N K I] = 3
• LKLDRERAKNKIAKE [102-116, L K L D R E R A K N K I A K E] = 1
• E E L T L G E F L K L D R E R (EELTLGEFLKLDRER; listed as Homo sapiens) [94-108, 15-mer of human survivin, positions 94-108; insoluble peptide] = 0
• HRISTFKNWPFLEGC [peptide 17-31, H R I S T F K N W P F L E G C] = 8
• CAFLSVKKQFEELTL [peptide 84-98, C A F L S V K K Q F E E L T L] = 5
• KELEGWEPDDDPIEE [62-76, K E L E G W E P D D D P I E E] = 0
• MGAPTLPPAWQPFLK [1-15, M G A P T L P P A W Q P F L K] = 1
• FCFKELEGWEPDDDP [59-73, F C F K E L E G W E P D D D P] = 0
• LTLGEFLKLDRERAK [peptide 96-110, L T L G E F L K L D R E R A K] = 6
• ERMAEAGFIHCPTEN [36-50, E R M A E A G F I H C P T E N] = 0
• LSVKKQFEELTLGEF [87-101, L S V K K Q F E E L T L G E F] = 2
• AGFIHCPTENEPDLA [peptide 41-55, A G F I H C P T E N E P D L A] = 1
• KKQFEELTLGEFLKL [peptide 90-104, K K Q F E E L T L G E F L K L] = 6
• KQFEELTLGEFLKLD [91-105, K Q F E E L T L G E F L K L D] = 5

Origin of the recorded values: patent US9687539B2
